meta.source: paper PMC4336329

Biological target: human ether-à-go-go-related gene (hERG) potassium channel (human, UniProt Q12809);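 also: peak tail current of the secondary pulse compared with the same well before compound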
Sequence (Q12809 whole entry, looked up): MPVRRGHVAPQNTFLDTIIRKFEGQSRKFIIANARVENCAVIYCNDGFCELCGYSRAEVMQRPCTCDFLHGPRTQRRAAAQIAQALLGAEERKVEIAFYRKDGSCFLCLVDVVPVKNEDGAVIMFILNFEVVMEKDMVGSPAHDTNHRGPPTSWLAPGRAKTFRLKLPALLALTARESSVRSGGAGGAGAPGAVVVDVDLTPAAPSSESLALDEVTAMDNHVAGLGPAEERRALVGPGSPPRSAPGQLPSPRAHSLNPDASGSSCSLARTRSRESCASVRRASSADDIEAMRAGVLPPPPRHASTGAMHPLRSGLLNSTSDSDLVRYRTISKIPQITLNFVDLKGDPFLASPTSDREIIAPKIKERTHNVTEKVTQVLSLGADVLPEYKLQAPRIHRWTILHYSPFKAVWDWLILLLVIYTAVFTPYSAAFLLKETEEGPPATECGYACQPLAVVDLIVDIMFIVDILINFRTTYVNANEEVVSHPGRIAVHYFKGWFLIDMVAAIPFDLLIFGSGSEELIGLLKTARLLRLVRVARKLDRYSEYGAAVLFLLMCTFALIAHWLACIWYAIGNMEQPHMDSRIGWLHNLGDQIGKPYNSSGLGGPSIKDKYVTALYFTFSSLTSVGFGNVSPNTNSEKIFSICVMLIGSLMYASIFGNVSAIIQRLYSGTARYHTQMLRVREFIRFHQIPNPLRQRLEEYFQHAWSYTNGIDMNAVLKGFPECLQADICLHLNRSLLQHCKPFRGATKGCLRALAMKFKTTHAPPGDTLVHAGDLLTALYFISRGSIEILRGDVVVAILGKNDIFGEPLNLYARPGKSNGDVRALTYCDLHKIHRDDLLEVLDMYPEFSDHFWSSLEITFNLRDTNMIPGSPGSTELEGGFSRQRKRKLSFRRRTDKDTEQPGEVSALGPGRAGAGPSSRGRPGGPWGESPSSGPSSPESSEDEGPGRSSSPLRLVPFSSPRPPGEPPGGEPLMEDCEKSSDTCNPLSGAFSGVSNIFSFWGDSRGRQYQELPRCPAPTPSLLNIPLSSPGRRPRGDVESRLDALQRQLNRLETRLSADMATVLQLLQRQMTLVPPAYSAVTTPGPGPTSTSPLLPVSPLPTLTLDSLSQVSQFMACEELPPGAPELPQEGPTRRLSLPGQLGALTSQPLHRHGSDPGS
Experiment: primary screen, population patch clamp on CHO cells stably expressing hERG; higher = less effect of the substance
About 14,000 (4.5%) of roughly 310,000 compounds showed an effect of 50% or more. Effects have a minus sign here. This is one part of a sample in which strong results are shown more often than they occur.
Here, each record is paired with measured hERG current change (%, negative = inhibition) at 10uM data.
Readout type: hERG current change (%, negative = inhibition) at 10uM (%)

[[record]]
compound = "O=C(CN1CCN(S(=O)(=O)c2ccc(Br)cc2)CC1)Nc1ccc2c(c1)OCO2"
value_observed = -62.4

[[record]]
compound = "O=S(=O)(c1ccccc1)N1CCN=C1SCc1cccnc1"
value_observed = -12.1

[[record]]
compound = "COc1ccc(-n2cnc3cc(C(=O)NC4CCCC4)ccc32)cc1"
value_observed = -67.9

[[record]]
compound = "O=C(NCc1ccccc1)c1ccc(Oc2ccc(C(=O)NCc3ccccc3)cc2)cc1"
value_observed = -3.44

[[record]]
compound = "CCN1C(=S)N[C@@H](c2ccccc2)C(C(=O)OC)=C1C"
value_observed = 14.8

[[record]]
compound = "Cc1cccc(CNc2ccc(C(CC(N)=O)NC(=O)Cc3cccc4ccccc34)cc2[N+](=O)[O-])c1 (stereo not shown)"
value_observed = 7.02

[[record]]
compound = "CCN1C(N(C)CCc2cccs2)=N[C@@H](c2ccccc2)C(C(=O)OC)=C1C"
value_observed = -53.8

[[record]]
compound = "Cc1cccc(C(=O)N2CCN=C2SCc2ccc([N+](=O)[O-])cc2)c1"
value_observed = -51.9

[[record]]
compound = "O=C(CN1CCN(S(=O)(=O)c2ccccc2)CC1)Nc1ccc2c(c1)OCO2"
value_observed = -44.1

[[record]]
compound = "O=C(C1CC(=O)N(c2ccc(Cl)cc2)C1)N1CCOCC1 (stereo not shown)"
value_observed = -0.293

[[record]]
compound = "COc1ccccc1-n1cnc2cc(NS(=O)(=O)c3ccc(Br)cc3)ccc21"
value_observed = -3.3

[[record]]
compound = "COC(=O)C1=C(C)N(Cc2ccccc2)C(=NCCc2cccnc2)N[C@H]1c1ccccc1"
value_observed = -63

[[record]]
compound = "COc1ccccc1-n1cnc2cc(C(=O)NCC3CCCO3)ccc21 (stereo not shown)"
value_observed = -13.7

[[record]]
compound = "COc1ccccc1-n1cnc2cc(C(=O)NC3CCCC3)ccc21"
value_observed = -65.5

[[record]]
compound = "O=C1NN(c2ccc(Br)cc2)C(=O)/C1=C\\c1ccc(O)cc1O"
value_observed = 30.2

[[record]]
compound = "CCOC(CNC(=O)c1ccc2c(c1)ncn2-c1ccccc1OC)OCC"
value_observed = 2.14

[[record]]
compound = "CN(C)c1ccc(/C=C/c2nc3ccccc3s2)cc1"
value_observed = 17.7

[[record]]
compound = "Cc1cc2oc(C(=O)Nc3c(C)n(C)n(-c4ccccc4)c3=O)c(C)c2cc1C"
value_observed = -24

[[record]]
compound = "COc1cc(NC(=O)c2cc3ccccc3o2)c(OC)cc1Br"
value_observed = 5.55


###

Biological target: human ether-à-go-go-related gene (hERG) potassium channel (human, UniProt Q12809);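 also: peak tail current of the secondary pulse compared with the same well before compound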
Assay: primary screen, population patch clamp on CHO cells stably expressing hERG; higher = less effect of the substance
About 14,000 (4.5%) of roughly 310,000 compounds showed an effect of 50% or more. The effect is printed as a negative number. Shown is part of a subset that was picked to be rich in strong results.
As shown below, each of these compounds has a reported hERG current change (%, negative = inhibition) at 10uM value.
Readout type: hERG current change (%, negative = inhibition) at 10uM (%)

[[record]]
compound = "COc1ccc(C(=O)OCn2nnc3ccccc3c2=O)cc1[N+](=O)[O-]"
value_observed = 13.6

[[record]]
compound = "CC1(C)CC(=O)C=C(NCCN2CCN(C(=O)Nc3ccc(Cl)c(Cl)c3)CC2)C1"
value_observed = -24

[[record]]
compound = "Nc1sc(-c2ccccc2)c(Cc2ccccc2)c1C(=O)O"
value_observed = -2.59

[[record]]
compound = "CC(C)(C)NCc1ccccc1OCc1cccs1.Cl"
value_observed = 6.17

[[record]]
compound = "CN(C)S(=O)(=O)N1CCN(C(=O)c2cccs2)CC1"
value_observed = 7.17

[[record]]
compound = "CCOC(=O)c1cnn(-c2nc(CC)nc3sc4c(c23)CCC4)c1N"
value_observed = 8.44

[[record]]
compound = "CCOc1ccc(C2C(C#N)=C(N)N3C(=C2C#N)Sc2ccccc23)cc1 (centres unmarked)"
value_observed = 9.5

[[record]]
compound = "Cc1ccn2cc(CSc3ccccc3N)nc2c1"
value_observed = -29.1

[[record]]
compound = "Cc1cccc(NC(=O)c2ccc3c(=O)n4c(nc3c2)CCCCC4)n1"
value_observed = -67.2

[[record]]
compound = "Cc1ccc(S(=O)(=O)c2c(C)nn(C(C)(C)C)c2OC(=O)C(C)(C)C)cc1"
value_observed = 15.6

[[record]]
compound = "COc1ccc(CNc2ccc3c(c2)ncn3-c2ccccc2OC)cc1"
value_observed = -23


###

Molecular target: human ether-à-go-go-related gene (hERG) potassium channel (human, UniProt Q12809);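 also: peak tail current of the secondary pulse compared with the same well before compound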
Assay: primary screen, population patch clamp on CHO cells stably expressing hERG; higher = less effect of the substance
About 14,000 (4.5%) of roughly 310,000 compounds showed an effect of 50% or more. The effect is printed as a negative number. The list comes from a sample in which strong results are over-represented; it also holds close analogues and randomly drawn compounds.
Lab note: compare hERG current change (%, negative = inhibition) at 10uM against -20%. Equal or greater, write Condition met. Smaller, write Condition not met.

[[record]]
molecule = "CC(=O)Nc1ccccc1NC(=O)COc1cccc2ccccc12"
class_label = "Condition met"

[[record]]
molecule = "O=C(Cc1ccccn1)c1ccc(Cl)cc1"
class_label = "Condition met"

[[record]]
molecule = "N#C/C(=C\\c1ccc(C#N)cc1)C(=O)N1CCCC1"
class_label = "Condition met"

[[record]]
molecule = "O=C1CC(N2CCN(CCc3ccccn3)CC2)C(=O)N1c1ccc(Cl)cc1 (centres unmarked)"
class_label = "Condition not met"

[[record]]
molecule = "CCN1CCN(C(=O)/C(C#N)=C/c2ccc(OC(F)F)cc2)CC1.Cl"
class_label = "Condition not met"

[[record]]
molecule = "CCCn1c(SCC(=O)Nc2nc3c(s2)CCCC3)nc2c1c(=O)n(C)c(=O)n2C"
class_label = "Condition met"

[[record]]
molecule = "CC1=CC(C)[C@@H]2COC(c3ccc(O)cc3)[C@H]1C2C (some centres unmarked)"
class_label = "Condition met"

[[record]]
molecule = "O=C(CN1CCN(c2ccccn2)CC1)Nc1cccc(F)c1"
class_label = "Condition met"

[[record]]
molecule = "O=C(CN1CCN(C(=O)COc2cccc(F)c2)CC1)Nc1ccc(Cl)c(C(F)(F)F)c1"
class_label = "Condition not met"

[[record]]
molecule = "CCOc1cc(/C=N/NC(=O)CSc2cccc3cccnc23)ccc1O"
class_label = "Condition met"

[[record]]
molecule = "Cc1cc2cc(C(c3nnnn3C3CCCC3)N(Cc3cccnc3)Cc3ccco3)c(=O)[nH]c2cc1C (centres unmarked)"
class_label = "Condition not met"

[[record]]
molecule = "N#C/C(=C\\c1ccc(OC(F)F)cc1)C(=O)N1CCCCC1"
class_label = "Condition not met"

[[record]]
molecule = "Cc1c(C)c2ccc(OC(C)C(=O)NCCc3c[nH]c4ccccc34)cc2oc1=O (centres unmarked)"
class_label = "Condition met"

[[record]]
molecule = "CCC(=O)N1CCN(c2ccc(NC(=S)NC(=O)COc3ccccc3)cc2)CC1"
class_label = "Condition not met"

[[record]]
molecule = "COc1ccc(C(=O)N2CCN(c3ccccn3)CC2)cc1"
class_label = "Condition met"

[[record]]
molecule = "COc1ccccc1N(C(=O)CCl)c1cn(C(C)=O)c2ccccc12"
class_label = "Condition met"

[[record]]
molecule = "Cc1ccc(OCCC(=O)Nc2ccc(C)c(F)c2)cc1"
class_label = "Condition not met"

[[record]]
molecule = "O=C(CS(=O)(=O)c1ccccc1)Nc1nc(-c2ccccc2)cs1"
class_label = "Condition not met"

[[record]]
molecule = "Cc1nnc(NC(=O)CSc2nc3c(c(=O)n(C)c(=O)n3C)n2C(C)C)s1"
class_label = "Condition met"

[[record]]
molecule = "COc1ccc(C(=O)N2CCN(CCc3ccccn3)CC2)cc1.Cl"
class_label = "Condition not met"

[[record]]
molecule = "Cc1ccc(OCCC(=O)Nc2ccc(F)c(F)c2)cc1"
class_label = "Condition met"

[[record]]
molecule = "O=C(O)C1CCN(C(=O)c2ccco2)CC1"
class_label = "Condition met"

[[record]]
molecule = "CCOc1ccc(NC(=O)CN2CCN(CC(=O)Nc3ccc(Cl)c(C(F)(F)F)c3)CC2)cc1"
class_label = "Condition not met"

[[record]]
molecule = "Cc1ccc2cc(C(c3nnnn3C3CCCC3)N(Cc3ccccc3)Cc3ccco3)c(=O)[nH]c2c1 (centres unmarked)"
class_label = "Condition met"

[[record]]
molecule = "Cl.O=C(c1ccc(Cl)cc1)N1CCN(CCc2ccccn2)CC1"
class_label = "Condition not met"

[[record]]
molecule = "CCC(C)(C)n1nnnc1C(C(C)C)N(Cc1cccnc1)Cc1ccco1 (centres unmarked)"
class_label = "Condition met"

[[record]]
molecule = "O=C1CC(N2CCN(c3ccccn3)CC2)C(=O)N1c1ccc(Cl)cc1 (centres unmarked)"
class_label = "Condition met"

[[record]]
molecule = "CCOc1ccc(NC(=O)CN2CCN(CC(=O)Nc3cccc(F)c3)CC2)cc1"
class_label = "Condition not met"

[[record]]
molecule = "CCC(C)(C)n1nnnc1C(c1cc2ccc(C)cc2[nH]c1=O)N(Cc1cccnc1)Cc1ccco1 (centres unmarked)"
class_label = "Condition not met"

[[record]]
molecule = "CCN(C(=O)COC(=O)CSc1ccc(C(N)=O)cc1[N+](=O)[O-])C1CCCCC1"
class_label = "Condition met"

[[record]]
molecule = "COc1ccccc1C1(O)CCN(CC(=O)Nc2nc(-c3ccccc3)cs2)CC1"
class_label = "Condition not met"

[[record]]
molecule = "Cc1ccc(S(=O)(=O)N2CCN(C(=O)c3ccccn3)CC2)cc1"
class_label = "Condition met"

[[record]]
molecule = "CC(C)n1c(SCC(=O)Nc2nc3c(s2)CCCC3)nc2c1c(=O)n(C)c(=O)n2C"
class_label = "Condition not met"

[[record]]
molecule = "COc1ccc(C2(O)CCN(CC(=O)Nc3nc(-c4ccccc4)cs3)CC2)cc1"
class_label = "Condition met"

[[record]]
molecule = "Cc1nc2sc3c(c2c2nnc(SCC(=O)NCc4ccco4)n12)CCCC3"
class_label = "Condition not met"

[[record]]
molecule = "C=C(C)Cn1c(-c2ccc(OC)cc2)nc2ccccc21"
class_label = "Condition not met"

[[record]]
molecule = "O=C(c1ccccc1)N1CCN(CCc2ccccn2)CC1"
class_label = "Condition met"

[[record]]
molecule = "CCn1c(-c2ccc(N)cc2)nc2ccccc21"
class_label = "Condition met"

